# method.summary: Toxicity liver stage against HepG2, at 10uM
# Assay type: cell-based
# Parameters: test concentration 10 uM, cell line HepG2-A16-CD81EGFP
# stated.conditions: human, HepG2-A16-CD81EGFP cells; read-out: INHIBITION
experimental.endpoint: cytotoxicity at 10 µM (%)
Lab book: enter the figure in %, no units written.

Look over these answered cases.
{"compound": "CN1CCC(Cc2cnc3ccccc3c2)C1 (centres undefined)", "cytotoxicity at 10 µM, %": 1.42}
{"compound": "Cc1nc(CN2CCC3(CCN(c4cnn(C)c4)C3=O)C2)cs1 (centres undefined)", "cytotoxicity at 10 µM, %": 4.15}
{"compound": "CCS(=O)(=O)N1CCC(Nc2ccc(C#N)cc2F)CC1", "cytotoxicity at 10 µM, %": 5.65}
{"compound": "COCCn1ccc(NCc2cc3cc(F)ccc3o2)n1", "cytotoxicity at 10 µM, %": -8.78}
{"compound": "CN(C)S(=O)(=O)N1CC[C@]2(C[C@H](OCc3ccncc3)CO2)C1", "cytotoxicity at 10 µM, %": 1.23}
{"compound": "Cc1ccc(CN(C)C(=O)NCC(=O)NC(C)(C)C)s1", "cytotoxicity at 10 µM, %": 0.136}

Input line: # lookup: cytotoxicity at 10 µM of CCC(=O)N1CCN(c2ncnc3cc4c(cc23)OCCO4)CC1
Output line: 10.2

Input line: # lookup: cytotoxicity at 10 µM of CCNC(=O)C1(Cc2ccc(-c3ccccc3)cc2)CCCNC1 (centres undefined)
Output line: -3.73

Input line: # lookup: cytotoxicity at 10 µM of COc1nc(C)c(C(=O)NCc2cc(N3CCOCC3)ncn2)s1
Output line: 12.9

Input line: # lookup: cytotoxicity at 10 µM of O=C(Cc1ccsc1)NCCc1ccoc1
Output line: 5.5

Input line: # lookup: cytotoxicity at 10 µM of COCCC(=O)N1CCN(C)c2ncccc2C1
Output line: -8.28

Input line: # lookup: cytotoxicity at 10 µM of O=C(NCc1ccncc1)c1nc2c(o1)CN(C(=O)c1cccnc1)C2
Output line: 1.21

Input line: # lookup: cytotoxicity at 10 µM of CCc1nc(CN(C)C2CCN(CCCOc3ccccc3)C2)no1 (centres undefined)
Output line: 0.141

Input line: # lookup: cytotoxicity at 10 µM of c1ccc(-c2noc(CN3CCC(c4ccn[nH]4)CC3)n2)cc1
Output line: -1.19

Input line: # lookup: cytotoxicity at 10 µM of COCCN1CCC2(CCCN(c3ncccn3)C2)C1 (centres undefined)
Output line: 1.36

Input line: # lookup: cytotoxicity at 10 µM of CCc1ocnc1C(=O)N1CCOC(c2nc(C(C)C)n[nH]2)C1 (centres undefined)
Output line: 7.43

Input line: # lookup: cytotoxicity at 10 µM of Cc1cc(C)nc(NCCC(=O)NCCn2ccc3ccccc32)n1
Output line: -34.2

Input line: # lookup: cytotoxicity at 10 µM of CS(=O)(=O)N1CCCC(Cc2cncc(Br)c2)CC1 (centres undefined)
Output line: 2.16

Input line: # lookup: cytotoxicity at 10 µM of Cc1cc(NC(=O)C(C)NCCn2cccn2)no1 (centres undefined)
Output line: 10.6

Input line: # lookup: cytotoxicity at 10 µM of CNc1cc(CNC(=O)c2ccncc2)nc(-c2ccncc2)n1
Output line: -7.16

Input line: # lookup: cytotoxicity at 10 µM of Cc1ccc(N2C[C@@H]3CCCO[C@@H]3[C@H](N3CCCC3)C2)nn1
Output line: 2.96

Input line: # lookup: cytotoxicity at 10 µM of COC(=O)[C@@H]1C[C@H](NC(=O)Cn2c(=O)cc(C)c3ccccc32)CN1C
Output line: -3.44

Input line: # lookup: cytotoxicity at 10 µM of Nc1nc(CCNc2ncnc3c2CCN(C(=O)C2CC2)C3)cs1
Output line: -6.68

Input line: # lookup: cytotoxicity at 10 µM of CCN(CC)S(=O)(=O)N(Cc1cccc(C)c1)Cc1ccccn1
Output line: -4.88

---

# method.summary: Toxicity liver stage against HepG2, at 10uM
# Format: cell-based
# Set-up: test concentration 10 uM, cell line HepG2-A16-CD81EGFP
# stated.conditions: human, HepG2-A16-CD81EGFP cells; read-out: INHIBITION
The following compounds are shown together with reported cytotoxicity at 10 µM values.
Lab book: enter the figure in %, no units written.

Look over these answered cases.
{"compound": "COc1cccc(COCC(=O)N2CCCC(c3cc(C)[nH]n3)C2)c1 (configuration not stated)", "measurement.unit": "%", "readout.value": -6.81}
{"compound": "CS(=O)(=O)N1C[C@@H](NC(=O)c2ccno2)[C@@H]2OCCC[C@@H]21", "measurement.unit": "%", "readout.value": -108}
{"compound": "CCN(Cc1cccc(Cl)c1)Cc1ncc(C(C)(C)C)o1", "measurement.unit": "%", "readout.value": 11.2}
{"compound": "COc1ccnc(N2CCC3(CCCN(C(C)C)C3=O)C2)n1 (configuration not stated)", "measurement.unit": "%", "readout.value": -8.7}
{"compound": "CO[C@H]1CN(S(=O)(=O)c2ccc(C)cc2)C[C@@]12CCCO2", "measurement.unit": "%", "readout.value": -0.479}
{"compound": "Cc1c(C(=O)NCC(C)C)nnn1-c1cccc2c1CCN(C)C2", "measurement.unit": "%", "readout.value": -7.69}

Input line: # lookup: cytotoxicity at 10 µM of COCCN1C(=O)C2(CCN(CC3CC3)CC2)c2ccccc21
Output line: -115

Input line: # lookup: cytotoxicity at 10 µM of Cc1cc(CN(C)C(=O)NCc2ccnc(SC(C)(C)C)c2)no1
Output line: 10.4

---

# method.summary: Toxicity liver stage against HepG2, at 10uM
# Format: cell-based
# Design: test concentration 10 uM, cell line HepG2-A16-CD81EGFP
# stated.conditions: human, HepG2-A16-CD81EGFP cells; read-out: INHIBITION
experimental.endpoint: cytotoxicity at 10 µM (%)
Lab book: enter the figure in %, no units written.

{"compound": "Cn1cc(C2CC(=O)NC23CCN(c2ncc(F)cn2)CC3)cn1 (stereo not given)", "readout.value": -5.39}
{"compound": "Cc1cc(-c2cnn(CCNC(=O)CCn3cccn3)c2C2CC2)on1", "readout.value": -4.66}
{"compound": "O=C(c1ccoc1)N1CCOC2(COCCN(c3ncccn3)C2)C1 (stereo not given)", "readout.value": -98.4}
{"compound": "Cn1cnc(S(=O)(=O)NCC(C)(O)c2ccc3c(c2)OCO3)c1 (stereo not given)", "readout.value": -4.44}

Consider the additional compound presented here.
Input line: # lookup: cytotoxicity at 10 µM of CC1CCN(C(=O)[C@@H]2CC[C@@H]3[C@@H](CCN3c3ncc(F)cn3)O2)CC1
Output line: -0.359

---

# method.summary: Toxicity liver stage against HepG2, at 10uM
# Assay type: cell-based
# Parameters: test concentration 10 uM, cell line HepG2-A16-CD81EGFP
# stated.conditions: human, HepG2-A16-CD81EGFP cells; read-out: INHIBITION
experimental.endpoint: cytotoxicity at 10 µM (%)
Lab book: enter the figure in %, no units written.

{"compound": "CN(Cc1ccco1)[C@@H]1CN(Cc2nccs2)C[C@@H]2CCCO[C@@H]21", "readout.value": 6.07}

Input line: # lookup: cytotoxicity at 10 µM of Cn1ncnc1NS(=O)(=O)c1ccccc1
Output line: 8.26

Input line: # lookup: cytotoxicity at 10 µM of COc1c(CNC2CCc3ccccc32)c(C)nn1C (configuration not stated)
Output line: 7.08

Input line: # lookup: cytotoxicity at 10 µM of Cc1cc(Br)c(O)c(-c2nc(N3CCCCC3)sc2C)c1
Output line: -7.13

Input line: # lookup: cytotoxicity at 10 µM of O=C(c1cccnc1)N1CCCC2(CCN(c3ccsc3)C2=O)C1 (configuration not stated)
Output line: -1.29

Input line: # lookup: cytotoxicity at 10 µM of Cc1cc2c(=O)n3c(nc2s1)CCN(C(=O)c1ccn(C)n1)CC3
Output line: -9.68

Input line: # lookup: cytotoxicity at 10 µM of COCc1ccc(C(=O)N2CCc3c(ncnc3N3CCOCC3)C2)o1
Output line: -2.17

Input line: # lookup: cytotoxicity at 10 µM of O=C(C1CN(Cc2ccsc2)Cc2ccnn2C1)N1CCCC1 (configuration not stated)
Output line: -6.93

Input line: # lookup: cytotoxicity at 10 µM of CCn1nc(CC(C)C)cc1C(=O)NCC(F)(F)F
Output line: 21.3

Input line: # lookup: cytotoxicity at 10 µM of CC(C)(C)C(NC(=O)CCS(C)(=O)=O)c1ccc(F)cc1F (configuration not stated)
Output line: -0.189

Input line: # lookup: cytotoxicity at 10 µM of CCc1ocnc1C(=O)N1CCCC1c1noc(C)n1 (configuration not stated)
Output line: -8.77

Input line: # lookup: cytotoxicity at 10 µM of CCS(=O)(=O)c1ccccc1N1CCC(N)CC1
Output line: 3.03
